- system_tested: recombinant human His-ATG7 enzyme (Homo sapiens (Human))
- Sequence (O95352 whole entry): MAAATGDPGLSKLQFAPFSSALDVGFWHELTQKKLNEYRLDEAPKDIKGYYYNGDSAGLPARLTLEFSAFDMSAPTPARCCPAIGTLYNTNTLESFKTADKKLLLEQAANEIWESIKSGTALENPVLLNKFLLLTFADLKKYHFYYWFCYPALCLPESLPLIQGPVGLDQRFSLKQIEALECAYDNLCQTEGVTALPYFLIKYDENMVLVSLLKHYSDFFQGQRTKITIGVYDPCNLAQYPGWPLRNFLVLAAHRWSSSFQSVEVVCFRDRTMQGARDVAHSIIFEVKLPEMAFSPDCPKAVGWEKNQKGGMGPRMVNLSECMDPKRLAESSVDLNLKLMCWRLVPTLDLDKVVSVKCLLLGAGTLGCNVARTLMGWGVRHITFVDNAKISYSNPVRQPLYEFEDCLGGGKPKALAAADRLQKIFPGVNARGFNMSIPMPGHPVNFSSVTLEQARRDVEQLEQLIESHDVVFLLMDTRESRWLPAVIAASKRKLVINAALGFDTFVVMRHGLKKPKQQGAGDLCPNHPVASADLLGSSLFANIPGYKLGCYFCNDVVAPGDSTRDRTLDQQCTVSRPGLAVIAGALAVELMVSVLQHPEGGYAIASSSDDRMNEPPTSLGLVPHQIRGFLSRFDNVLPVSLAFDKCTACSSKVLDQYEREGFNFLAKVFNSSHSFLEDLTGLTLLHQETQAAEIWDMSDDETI
- assay_summary: ATG7 Enzyme Assay (HTRF/FRET, ATG3-GST and Flag-Gabarap)
# IC50 per entry

Identify the measured IC50 of Nc1ncnc2c1c(SC1CCC1)nn2[C@@H]1O[C@H](COS(N)(=O)=O)[C@@H](O)[C@@H]1F [Compound I-147] for recombinant human His-ATG7 enzyme (Homo sapiens (Human)).
< 20 nM

* * *

# inhibition at 0.111 µM per entry
- system_tested: recombinant human His-ATG7 enzyme (Homo sapiens (Human))
- assay_summary: ATG7 Enzyme Assay (HTRF/FRET, ATG3-GST and Flag-Gabarap)
- Format: biochemical
- assay_conditions: Concentration 0.111 μM; read-out: Percent Inhibition
- Experimental: Example 97: ATG7 Enzyme Assay The total volume of the ATG7 enzymatic assay is 50 μL and contains 50 mM HEPES Hemisodium (pH 7.5), 0.05% BSA, 0.01% Tween-20, 25 mM NaCl, 5 mM MgCl2, 10 μM ATP, 250 μM GSH, 5 nM ATG3-GST, 5 nM Flag-Gabarap, 100 μM TCEP and 0.15 nM recombinant human His-ATG7 enzyme. […] After incubation for 2 hours at 24° C., quantification of FRET is performed on the Pherostar™ (BMG Labtech). […]
Your answer is read as %, so omit the unit and give the number.

Bench note: what inhibition at 0.111 µM did Nc1ncnc2c1c(SC1CCC1)nn2[C@@H]1O[C@H](COS(N)(=O)=O)[C@@H](O)[C@H]1O show?
84

More entries:
Bench note: what inhibition at 0.111 µM did Nc1ncnc2c1c(Sc1ccc3c(c1)CCC3)nn2[C@H]1C[C@H](O)[C@H](COS(N)(=O)=O)O1 show?
41

Okay, and CC(Sc1nn([C@@H]2O[C@H](COS(N)(=O)=O)[C@@H](O)[C@@H]2F)c2ncnc(N)c12)C1CC1 (mixture of isomers) ?
71

Okay, and CC(C)(C)Sc1nn([C@@H]2O[C@H](COS(N)(=O)=O)[C@@H](O)[C@@H]2F)c2ncnc(N)c12 ?
86

Okay, and CSc1nn([C@H]2C[C@H](O)[C@@H](COS(N)(=O)=O)O2)c2ncnc(N)c12 ?
70

Okay, and CCC(CC)Sc1nn([C@@H]2O[C@H](COS(N)(=O)=O)[C@@H](O)[C@@H]2F)c2ncnc(N)c12 ?
46

Okay, and Nc1ncnc2c1c(Sc1ccc(OC(F)(F)F)cc1)nn2[C@H]1C[C@H](O)[C@@H](COS(N)(=O)=O)O1 ?
45
